- Test system: CEM/VLB1000 Cells
- EXPERIMENTAL_PROTOCOL: Cytotoxicity potentiation assay (alamar blue), vinblastine in CEM/VLB1000 cells
- APPLIED_CONDITIONS: read-out: Cytotoxicity Potentiation (µM) CEM/VLB1000 Cells; midpoint (EC50) of minimum and maximum cytotoxicity induced by 5 µg/mL vinblastine and compound; 48 hours incubation, alamar blue 24 hours
ASSAY_ENDPOINT: EC50

>>> df
                             chemical_string  assay_endpoint  result
 0  COc1ccc(-c2nc(-c3ccc(/C=C/c4ccccc4)cc3)n(CCCn3ccnc3)c2-c2ccc(OC)cc2)cc1            EC50  0.4 µM
 1  CN(C)c1ccc(-c2nc(-c3ccc(/C=C/C(=O)O)cc3)n(CCc3ccccc3)c2-c2ccc(N(C)C)cc2)cc1            EC50   10 µM
 2  CCCCCCn1c(-c2ccc(C(=O)OC)cc2)nc(-c2ccc(N(C)C)cc2)c1-c1ccc(N(C)C)cc1            EC50    5 µM
 3  CN(C)c1ccc(-c2nc(-c3ccc(O)cc3)n(CCc3ccccc3)c2-c2ccc(N(C)C)cc2)cc1            EC50    2 µM
 4  CCCCCCn1c(-c2ccc(OCCCN(C)C)cc2)nc(-c2ccc(OC)cc2)c1-c1ccc(OC)cc1            EC50    2 µM
 5  CN(C)c1ccc(-c2nc(-c3ccc(C(=O)O)cc3)n(CCc3ccccc3)c2-c2ccc(N(C)C)cc2)cc1            EC50   10 µM
 6  CN(C)c1ccc(-c2nc(-c3ccc(C(=O)O)cc3)[nH]c2-c2ccc(N(C)C)cc2)cc1            EC50   10 µM
 7  COC(=O)/C=C/c1ccc(-c2nc(-c3ccc(N(C)C)cc3)c(-c3ccc(N(C)C)cc3)n2CCCCCC(=O)OC)cc1            EC50  0.6 µM
 8  COC(=O)C=Cc1ccc(-c2nc(-c3ccc(N(C)C)cc3)c(-c3ccc(N(C)C)cc3)[nH]2)cc1            EC50  0.3 µM
 9  CN(C)c1ccc(-c2nc(-c3ccc(/C=C/C(=O)O)cc3)[nH]c2-c2ccc(N(C)C)cc2)cc1            EC50   10 µM
10  COC(=O)c1ccc(-c2nc(-c3ccc(N(C)C)cc3)c(-c3ccc(N(C)C)cc3)[nH]2)cc1            EC50  0.3 µM
11  CCCCCCn1c(-c2ccc(C(=O)O)cc2)nc(-c2ccc(N(C)C)cc2)c1-c1ccc(N(C)C)cc1            EC50    3 µM
12  COC(=O)/C=C/c1ccc(-c2nc(-c3ccc(OC)cc3)c(-c3ccc(OC)cc3)n2CCCCCC(=O)OC)cc1            EC50  0.6 µM
13  CN(C)c1ccc(-c2nc(-c3ccc(O)cc3)[nH]c2-c2ccc(N(C)C)cc2)cc1            EC50   10 µM

---

- System: SK/VLB1000 Cells
- EXPERIMENTAL_PROTOCOL: Cytotoxicity potentiation assay (alamar blue), Taxol in SK/VLB1000 cells
- Assay type: cell-based
- APPLIED_CONDITIONS: midpoint (EC50) of minimum and maximum cytotoxicity; method: Taxol 3 µg/mL for the SK cells (footnote: 5 µg/mL vinblastine); 48 hours incubation, alamar blue 24 hours
Recorded EC50 for the following compounds
ASSAY_ENDPOINT: EC50 (µM)

In [3]: df
Out[3]:
                            chemical_string  uom  readout_number
0  CN(C)c1ccc(-c2nc(-c3ccc(O)cc3)[nH]c2-c2ccc(N(C)C)cc2)cc1   µM              10
1  COc1ccc(-c2nc(-c3ccc(/C=C/c4ccccc4)cc3)n(CCCn3ccnc3)c2-c2ccc(OC)cc2)cc1   µM               1
2  CCCCCCn1c(-c2ccc(C(=O)O)cc2)nc(-c2ccc(N(C)C)cc2)c1-c1ccc(N(C)C)cc1   µM              10
3  COC(=O)C=Cc1ccc(-c2nc(-c3ccc(N(C)C)cc3)c(-c3ccc(N(C)C)cc3)[nH]2)cc1   µM             0.3
4  CCCCCCn1c(-c2ccc(OCCCN(C)C)cc2)nc(-c2ccc(OC)cc2)c1-c1ccc(OC)cc1   µM              10
5  COC(=O)/C=C/c1ccc(-c2nc(-c3ccc(N(C)C)cc3)c(-c3ccc(N(C)C)cc3)n2CCCCCC(=O)OC)cc1   µM               5
6  COC(=O)c1ccc(-c2nc(-c3ccc(N(C)C)cc3)c(-c3ccc(N(C)C)cc3)[nH]2)cc1   µM               1
